Hey, just so you know, these numbers are from ChEMBL document CHEMBL1201862.

# System: UACC-62
# method: NCI tumour cell line growth inhibition, 48 h
Calls of active or inactive are those of the source. Rule as the data show it: active = GI50 up to about 1.1 µM and inactive = higher.
Overview of reported GI50 across a group of molecules:

The cases that follow already have their GI50 on record.
>>> value_measured("C/C(=N/NC(=S)N1CCCCC1)c1cccc(/C(C)=N\\NC(=S)N2CCCCC2)n1")
"2.42 µM (inactive)"
>>> value_measured("COCn1cnc2c(=O)nc(SC)n(-c3ccccc3)c21")
"> 100 µM (inactive)"
>>> value_measured("S=C(c1c[nH]c2ccccc12)N1CCN(Cc2ccccc2)CC1")
"15.6 µM (inactive)"
>>> value_measured("[N-]=[N+]=Nc1c([N+](=O)[O-])c(=O)n2c3c(cccc13)CCC2")
"14 µM (inactive)"
>>> value_measured("C=C[C@@H]1OC(=O)O[C@H]1CO")
"> 100 µM (inactive)"

query: Would you kindly share the measured GI50 for NC1(P(=O)(O)O)CCCCC1 ?
result: > 100 µM (inactive)
